Reference source: PubChem BioAssay (NCI)

test system: RXF 393 renal; test: NCI-60 one-dose screen, 48 h; conditions: 10 µM unless noted
Compounds without any hit were thinned out: in the full panel of roughly 83,000, 20% have a hit. Active and inactive are the calls of the source. The calls were made as follows: active = growth percent below 10; inactive = the rest.
Mark one answer only. Choices: active, inactive

Previously resolved entries follow.
Cc1ccccc1/C=C/C(=O)c1cccc(OCCCOc2cccc(C(=O)/C=C/c3ccccc3C)c2)c1: inactive
O=C(CSc1nc2sc3c(c2c(=O)n1-c1ccccc1)CCCCC3)N/N=C/c1cccc([N+](=O)[O-])c1: inactive
CC1CCN(CCOc2ccc(CNc3ccc4nc(CCC5CCCCC5)[nH]c4c3)cc2)CC1: active
CCCCCCCC[C@@H]1N[C@@H](C(=O)OC)Cc2c1[nH]c1ccccc21: inactive
O=S(=O)(Nc1ccc(F)cc1F)c1ccc(-c2cnc(C3CC3)o2)cc1: active

Query block: Short answer needed: outcome of this test for O=C(c1ccccc1)c1ccc(C2CCCCC2)cc1 ?
Result block: inactive

Query block: Which outcome was assigned to CC(=O)N1N=C(c2ccc(Nc3nc(Nc4ccccc4)nc(Nc4ccccc4)n3)cc2)CC1c1ccccc1 (stereo not given) in this test?
Result block: inactive

Query block: Recorded test outcome, item O=S(=O)(Nc1cc(F)cc(Cl)c1)c1ccc(-c2cnc(C3CC3)o2)cc1
Result block: inactive

Query block: Status in this test for Cc1cn(-c2cc(NC(=O)c3cncc(C#Cc4cnc(N)c5ncccc45)c3)cc(C(F)(F)F)c2)cn1 ?
Result block: inactive

Query block: Record lookup: outcome of this test for O=C(/C=C/c1ccco1)Nc1ncc(Cc2cccc(C(F)(F)F)c2)s1 ?
Result block: active

---

system: SF-295 CNS; test: NCI-60 one-dose screen, 48 h (100 = growth as untreated, 0 = no growth, -100 = all killed); details: 10 µM unless noted
This is part of a sample that, as a whole, favours compounds with a hit. Of some 83,000 tested, about 20% had one in any assay.
With a cut-off of 60%, any growth strictly below it is called fulfilled; any growth meeting it or above is called not fulfilled.

Check out these entries, answers already filled in.
COc1cc2c(c(OC)c1OC)CCC(c1cccc(C(=O)Nc3cccc(Cl)c3)c1)O2 (centres undefined): not fulfilled
CCCCCCCCCCCCCCCCCCOc1ccccc1CC(=O)OCC[N+](C)(C)C: fulfilled
C=CCSc1nnc(NC(=O)CCl)s1: not fulfilled
Fc1cnccc1C1CC(c2ccc(N3CCNCC3)cc2)=NN1 (centres undefined): not fulfilled
COc1ccc2cc1Oc1ccc(cc1)C[C@H]1c3c(cc4c(c3Oc3cc5c(cc3OC)CCN(C)[C@@H]5C2)OCO4)CCN1C: fulfilled
COc1ccc(C(=O)C/C(=C\c2ccc(Cl)cc2)C(=O)NCc2ccccc2)cc1: not fulfilled

Query block: Given the entry O=C1c2c(c3c4ccccc4[nH]c3c3ccc4ccccc4c23)C(=O)N1CCN1CCOCC1 , would its reported growth be below 60%?
Result block: fulfilled

Query block: Is it true that growth reported for Nc1cnc(C(=O)NNc2nc3cc(F)ccc3n3cccc23)cn1 is less than 60%?
Result block: fulfilled

Query block: Report whether reported growth is lower than 60% (strictly) for COc1cc2ncnc(Nc3ccc(S(=O)(=O)Nc4cc(C)on4)cc3)c2cc1OCCCN1CCN(c2ccc(F)cc2)CC1
Result block: not fulfilled

---

tested on: SN12C renal; assay: NCI-60 one-dose screen, 48 h; conditions: 10 µM unless noted
Compounds without any hit were thinned out: in the full panel of roughly 83,000, 20% have a hit. Calls of active or inactive are those of the source. Rule for the calls: active = growth percent below 10; inactive = the rest.
Your reply should match one of these outcome classes. 1 (yes) = active, 0 (no) = inactive

As a guide, the following entries are already answered.
c1cc2c(ccc3[nH]c(-c4ccc5[nH]ncc5c4)c4c(c32)CCCC4)n1: 0 (no)
COc1ccc(-c2ccc(=O)oc2-c2cc(OC)c(OC)c(OC)c2)cc1O: 0 (no)
COC(=O)[C@]12CCC(C)(C)C[C@H]1[C@H]1/C(=N/OCCc3nn[nH]n3)C[C@@H]3[C@@]4(C)CC[C@H](OC(C)=O)C(C)(C)[C@@H]4CC[C@@]3(C)[C@]1(C)CC2: 0 (no)
N#Cc1c(-c2ccccc2)cc(-c2ccccc2)n(CCCC(=O)Nc2ccccc2N)c1=O: 0 (no)
Cn1ccnc1C(=O)/C=C/c1ccc(C(=O)Nc2ccccc2O)cc1: 0 (no)

Query block: Dear colleague, could you share the recorded outcome for N#C/C(=C\c1c(-c2ccccc2)[nH]c2ccccc12)C(N)=O when you have a moment?
Result block: 0 (no)

Query block: Per the records of this test, what outcome belongs to COc1ccc(C(C)=O)cc1S(=O)(=O)Nc1c(N)nc(SC)[nH]c1=O ?
Result block: 0 (no)

Query block: Give the logged outcome of this assay for the following compound: O=S(=O)(c1ccccc1)n1cc2c(c1)-c1nc(Nc3ncccn3)sc1CC2
Result block: 0 (no)

Query block: Recorded test call requested for CSc1nc2ccccc2cc1/C=[N+](\[O-])c1ccccc1
Result block: 0 (no)

Query block: Any idea what this test logged for COc1ccc(-c2nn(-c3cccc(Cl)c3)cc2-c2cc(-c3ccc(Br)cc3)nc(N)n2)cc1 ?
Result block: 0 (no)

Query block: GET /call?item= O=C(c1nn(-c2ccccc2)c2c1CC(NCc1ccc(F)cc1)CC2)N1CCCCC1 (configuration not stated) returns the recorded outcome of this test.
Result block: 0 (no)

Query block: Per the records of this test, what outcome belongs to Nc1n[nH]c2ccc([C@H]3[C@@H]4C5CCC(C5)[C@@H]4c4c(ccc5[nH]ncc45)N3S(=O)(=O)C3CC3)cc12 (some centres not stated) ?
Result block: 0 (no)

Query block: Assay result, entry Cc1ccc(C(=O)c2ccc(CC(=O)N/N=C/c3ccccc3O)n2C)cc1 — outcome?
Result block: 0 (no)

Query block: What outcome does the record of this test show for CC(C)=CCCC(C)c1ccc(C)c2c1OCN(CCCCCO)C2 (configuration not stated) ?
Result block: 0 (no)

Query block: Field: outcome | Entry: COc1cc2c(cc1OCCCN1CCN(CCCOc3cc4c(cc3OC)C(=O)N3CC(F)(F)C[C@H]3C=N4)CC1)N=C[C@@H]1CC(F)(F)CN1C2=O
Result block: 0 (no)

Query block: Short answer needed: outcome of this test for CCCNc1nc2ccccc2c2c1S(=O)(=O)c1ccc(Cl)cc1C2=O ?
Result block: 1 (yes)

Query block: Would you mind telling me which call this test gave N#Cc1ccc(O)c(C2=NCC(c3cccc(Oc4ccccc4)c3)O2)c1 (configuration not stated) ?
Result block: 0 (no)
